system: Human alphaherpesvirus 3; assay: Antiviral activity against Varicella zoster virus Oka assessed as reduction in virus-induced cytopathogenicity by cell-based assay; type: functional, organism-based; conditions: Human alphaherpesvirus 3, strain Oka vaccine
Measure: EC50 (µM)
Numbers only; they are read as µM.

Bench note, Human alphaherpesvirus 3: entry `C=C(C)[C@@H]1CC[C@]2(C(=O)O)CC[C@]3(C)[C@H](CC[C@@H]4[C@@]5(C)CC(=O)C(=O)C(C)(C)[C@@H]5CC[C@]43C)[C@@H]12` , its EC50 = 10

====

assay: Cytotoxicity against HEL cells assessed as alteration in cellular morphology; type: cell-based; conditions: human
Overview of recorded MCC for various compounds
Numbers only; they are read as µM.

The cases that follow already have their MCC on record.
C=C(C)[C@@H]1CC[C@]2(C(=O)O)CC[C@]3(C)[C@H](CC[C@@H]4[C@@]5(C)CC(=O)C(=O)C(C)(C)[C@@H]5CC[C@]43C)[C@@H]12 | 20
C=C(C)[C@@H]1CC[C@]2(C(=O)O)CC[C@]3(C)[C@H](CC[C@@H]4[C@@]5(C)Cc6nnc(SC)nc6C(C)(C)[C@@H]5CC[C@]43C)[C@@H]12 | 20

# evaluate next
Briefly, MCC measured for `C#CCCSc1nnc2c(n1)C(C)(C)[C@@H]1CC[C@]3(C)[C@H](CC[C@@H]4[C@H]5[C@H](C(=C)C)CC[C@]5(C(=O)O)CC[C@]43C)[C@@]1(C)C2` : 20

====

assay: Cytotoxicity against HEL cells assessed as growth inhibition; assay type: cell-based; conditions: human
Overview of recorded CC50 for various compounds
Numbers only; they are read as µM.

The cases that follow already have their CC50 on record.
C=C(C)[C@@H]1CC[C@]2(C(=O)O)CC[C@]3(C)[C@H](CC[C@@H]4[C@@]5(C)CC(=O)C(=O)C(C)(C)[C@@H]5CC[C@]43C)[C@@H]12 | 51
C=C(C)[C@@H]1CC[C@]2(C(=O)O)CC[C@]3(C)[C@H](CC[C@@H]4[C@@]5(C)Cc6cc7c(nc6C(C)(C)[C@@H]5CC[C@]43C)SCC7)[C@@H]12 | 74
C=C(C)[C@@H]1CC[C@]2(C(=O)O)CC[C@]3(C)[C@H](CC[C@@H]4[C@@]5(C)Cc6nnc(SC)nc6C(C)(C)[C@@H]5CC[C@]43C)[C@@H]12 | 45

# evaluate next
Briefly, CC50 measured for `C#CCCSc1nnc2c(n1)C(C)(C)[C@@H]1CC[C@]3(C)[C@H](CC[C@@H]4[C@H]5[C@H](C(=C)C)CC[C@]5(C(=O)O)CC[C@]43C)[C@@]1(C)C2` : 55

====

test system: CCRF-CEM; assay: Cytostatic activity against human CEM cells after 72 hrs by Coulter counting analysis; type: functional, cell-based
Measure: pIC50
API: returns pIC50 as number; meaning -log10 of concentration in mol/L.

The cases that follow already have their pIC50 on record.
C#CCCSc1nnc2c(n1)C(C)(C)[C@@H]1CC[C@]3(C)[C@H](CC[C@@H]4[C@H]5[C@H](C(=C)C)CC[C@]5(C(=O)O)CC[C@]43C)[C@@]1(C)C2 | 5.92
C=C(C)[C@@H]1CC[C@]2(C(=O)O)CC[C@]3(C)[C@H](CC[C@@H]4[C@@]5(C)Cc6cc7c(nc6C(C)(C)[C@@H]5CC[C@]43C)SCC7)[C@@H]12 | 5.42
C=C(C)[C@@H]1CC[C@]2(C(=O)O)CC[C@]3(C)[C@H](CC[C@@H]4[C@@]5(C)Cc6nnc(SC)nc6C(C)(C)[C@@H]5CC[C@]43C)[C@@H]12 | 5.59
C=C(C)[C@@H]1CC[C@]2(C(=O)O)CC[C@]3(C)[C@H](CC[C@@H]4[C@@]5(C)Cc6n[nH]c(=S)nc6C(C)(C)[C@@H]5CC[C@]43C)[C@@H]12 | 3.69

# evaluate next
Briefly, pIC50 measured for `C=C(C)[C@@H]1CC[C@]2(C(=O)O)CC[C@]3(C)[C@H](CC[C@@H]4[C@@]5(C)CC(=O)C(=O)C(C)(C)[C@@H]5CC[C@]43C)[C@@H]12` : 4.89

====

test system: Human betaherpesvirus 5; assay: Antiviral activity against Human cytomegalovirus Davis assessed as reduction in viral plaque formation; type: functional, organism-based; conditions: Human betaherpesvirus 5, Davis
Measure: pEC50
API: returns pEC50 as number; meaning -log10 of concentration in mol/L.

The cases that follow already have their pEC50 on record.
C=C(C)[C@@H]1CC[C@]2(C(=O)O)CC[C@]3(C)[C@H](CC[C@@H]4[C@@]5(C)Cc6cc7c(nc6C(C)(C)[C@@H]5CC[C@]43C)SCC7)[C@@H]12 | 4.96
C=C(C)[C@@H]1CC[C@]2(C(=O)O)CC[C@]3(C)[C@H](CC[C@@H]4[C@@]5(C)Cc6nnc(SC)nc6C(C)(C)[C@@H]5CC[C@]43C)[C@@H]12 | 5.70

# evaluate next
Briefly, pEC50 measured for `C=C(C)[C@@H]1CC[C@]2(C(=O)O)CC[C@]3(C)[C@H](CC[C@@H]4[C@@]5(C)CC(=O)C(=O)C(C)(C)[C@@H]5CC[C@]43C)[C@@H]12` : 5.54
